- System: HUVEC
- protocol_notes: Antiangiogenic activity in human HUVEC cells assessed as angiogenesis rate at 10 uM after 5 hrs by endothelial tube formation assay relative to control
- Type: functional
Activity calls are given as the source filed them. No cut-off for these calls is given here.
Outcome codes: active, inactive

>>> group("Cc1cc(C)n2c1C=C(c1cccc(Br)c1)C2=O")
"inactive"
>>> group("COc1ccccc1C1=Cc2c(C)cc(C)n2C1=O")
"active"
>>> group("Cc1cc(C)n2c1C=C(c1ccccc1Cl)C2=O")
"inactive"
>>> group("Cc1cc(C)n2c1C=C(c1ccc(Br)cc1)C2=O")
"inactive"
>>> group("COc1cccc(C2=Cc3c(C)cc(C)n3C2=O)c1")
"inactive"

* * *

- Test system: HUVEC
- protocol_notes: Antiangiogenic activity in human HUVEC cells assessed as angiogenesis rate at 10 uM after 5 hrs by endothelial tube formation assay relative to control
- Format: functional
Active and inactive are the calls of the source. The rule behind the calls is not given here.
Classes used: active, inactive

>>> group("Cc1cc(C)n2c1C=C(c1cccc(Cl)c1)C2=O")
"inactive"
>>> group("CCN(CC)CCNC(=O)c1c(C)[nH]c(/C=C2\\C(=O)Nc3ccc(F)cc32)c1C")
"active"
>>> group("Cc1cc(C)n2c1C=C(c1ccc(Cl)cc1)C2=O")
"inactive"
>>> group("Cc1cc(C)n2c1C=C(c1ccccc1F)C2=O")
"active"
